Record set: pKi | PKA (Homo sapiens) | literature, multiple sources.
pKi: −log10 of the molar value.

CCc1cccc(C(CCN)C(=O)Nc2ccc3[nH]nc(C)c3c2)c1 (stereo not shown)
> 6.00
CS(=O)(=O)Nc1cccc(CC(=O)N(c2nc(-c3c[nH]c4ncccc34)cs2)C2CC2)c1
> 6.30
Cc1n[nH]c2ccc(NC(=O)[C@@H](CCN)c3cccc(Cl)c3F)cc12
> 6.00
NCCC(C(=O)Nc1ccc2[nH]nc(NC(=O)c3cc(Cl)cc(Cl)c3)c2c1)c1ccc(Cl)c(Cl)c1 (stereo not shown)
> 6.00
O=C(Cc1cccc(S(=O)(=O)N2CCOCC2)c1)N(c1nc(-c2c[nH]c3ncccc23)cs1)C1CC1
> 6.30
COC(=O)c1ccc(-c2n[nH]c3ccc(NC(=O)C(CCN)c4ccccc4)cc23)cc1 (stereo not shown)
> 6.00
O=C(Cc1cccc(S(=O)(=O)N2CCOCC2)c1)Nc1nnc(-c2c[nH]c3ncccc23)s1
5.30 to 6.30
NCCC(C(=O)Nc1ccc2[nH]nc(NC(=O)c3cccnc3)c2c1)c1ccc(Cl)c(Cl)c1 (stereo not shown)
> 6.00

Please fill in: pKi reported for NCCC(C(=O)Nc1ccc2[nH]nc(NCc3ccccc3)c2c1)c1ccc(Cl)c(Cl)c1 (stereo not shown) = > 6.00

// field: pKi; key: `N[C@H](Cc1ccccc1)C(=O)Nc1nc(-c2c[nH]c3ncccc23)cs1` ; value = > 6.30

For reference, reported pKi for CNCCCNC(C(=O)Nc1ccc2[nH]ncc2c1)c1cccc(Cl)c1 (stereo not shown) stands at > 6.00

The measured pKi associated with `CS(=O)(=O)Nc1cccc(CNC(=O)c2cc(-c3c[nH]c4ncccc34)cs2)c1` reads > 6.30

Item: `CC(C)Cc1ncnc2[nH]ccc12` | pKi: 5.30 to 6.30

pKi for N#Cc1ccc(C(=O)Nc2n[nH]c3ccc(NC(=O)C(CCN)c4ccc(Cl)c(Cl)c4)cc23)cc1 (stereo not shown) is > 6.00

For record `Cc1n[nH]c2ccc(NC(=O)[C@@H](CCN)c3ccccc3)cc12` the listed pKi is > 6.00

compound `O=C(Cc1ccccc1)Nc1nc(-c2c[nH]c3ncc(F)cc23)cs1` , pKi observed: > 6.30

Memo: NCCC(C(=O)Nc1ccc2[nH]ncc2c1)c1cccc(Cl)c1 (stereo not shown) , reported pKi: > 6.00

get_value(item= `CS(=O)(=O)Nc1cccc(CC(=O)Nc2cc(-c3c[nH]c4ncccc34)cs2)c1` , readout=pKi) returns > 6.30

// sample NCC(C(=O)Nc1nc(-c2c[nH]c3ncccc23)cs1)c1ccccc1Cl (stereo not shown) , its pKi was > 6.30

The recorded pKi for `O=C(Cc1ccc(F)cc1F)Nc1csc(-c2c[nH]c3ncccc23)n1` is > 6.30

Given item NCCC(C(=O)Nc1cc(Br)c2[nH]nc(Cl)c2c1)c1ccc(Cl)c(Cl)c1 (stereo not shown) , the value recorded as its pKi is > 6.00

Recorded pKi (compound `O=C(Cc1cccc(OCCCN2CCNCC2)c1)N(c1nc(-c2c[nH]c3ncccc23)cs1)C1CC1` ): 5.30 to 6.30
